Source: the RNAGym collection of RNA variant scans (doi:10.7554/elife.90254)

B1: LINE1-full (parent)
chain: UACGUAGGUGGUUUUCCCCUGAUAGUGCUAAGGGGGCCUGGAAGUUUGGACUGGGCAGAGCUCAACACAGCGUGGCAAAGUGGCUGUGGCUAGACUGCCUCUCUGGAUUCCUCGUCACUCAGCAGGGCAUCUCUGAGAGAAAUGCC

# Variants of: B1
# test details: self-cleavage, relative activity (ratio to wild type); higher = more cleavage; in vitro, sequencing; the parent is a self-cleaving ribozyme
readout: self-cleavage
Answers are plain numbers.

sequence code	readout	observed result
UACGUAGGUGGUUUUCCCCUGAUAGUGCUAAGGGGGCCAGGAAGUUUGGACUGGGCAGAGCUCAACACAGCGUGGCAAAGUGGCUGUGGCUAGACUGCCUCUCUGGAUUCCUCGUCGCUCAGCAGGGCAUCUCUGAGAGAAAUGCC	self-cleavage	1.39
UACGUGGGUGGUUUUCCCCUGGUAGUGCUAAGGGGGCCUGGAAGUUUGGACUGGGCAGAGCUCAACACAGCGUGGCAAAGUGGCUGUGGCUAGACUGCCUCUCUGGAUUCCUCGUCACUCAGCAGGGCAUCUCUGAGAGAAAUGCC	self-cleavage	1.19
UACGUAGGUGGUUUUCCCCUGAUAGUGCUAAGGGGGCCUGGAAGUUUGGACUGGGCAGAGCUCAACACAGCGUGGCCAAGUGGCUGUGGCUAGACUGCCCCUCUGGAUUCCUCGUCACUCAGCAGGGCAUCUCUGAGAGAAAUGCC	self-cleavage	1.53
UACGUAGGUGGUUUUCCCCUGAUAGUGCUUAGGGGGCCUGGAAGUUUGGACUGGGCAGAGCUCAACACAGCGUGGCAAAGUGGCUGUGGCUAGACUGCCUCUCUGGAUUCCUCGUCACUCAGCAGGGCAUCUCUGAGAGAAAGGCC	self-cleavage	1.38
UACGUAGGUGGUUUUCCCCUGAUAGUGCUAAGGGGGCCUGGAAGUUUGGACUGGGCAGAGCUCAACGCAGCGUGGCGAAGUGGCUGUGGCUAGACUGCCUCUCUGGAUUCCUCGUCACUCAGCAGGGCAUCUCUGAGAGAAAUGCC	self-cleavage	0.91
UACGUAGGUGGUUUUCCCCUGAUAGUGCUAAGGGGGCCUGGAAGUUUGGACUGGGCAGAGCUCAACACAGCGUGGCAAAGUGGCUGUGGCUAGACAGCCUCUCUGGAUUCCUCGUCACUCAGCAGGGCAUCUCUGAGAGAAAAGCC	self-cleavage	0.38
CACGUAGGUGGUUUUCCCCUGAUAGUGCUAAGGGGGCCUGGAAGUUUGGACUGGGCAGAGCUCAACACAGCGUGGCAAAGUGGCUGUGGCUAGACUGCCCCUCUGGAUUCCUCGUCACUCAGCAGGGCAUCUCUGAGAGAAAUGCC	self-cleavage	1.2
UACGUAGGUGGUUUUCCCCUGAUAGUGCUAAGGGGGCCUGGCAGUUUGGACUAGGCAGAGCUCAACACAGCGUGGCAAAGUGGCUGUGGCUAGACUGCCUCUCUGGAUUCCUCGUCACUCAGCAGGGCAUCUCUGAGAGAAAUGCC	self-cleavage	1.22

For each entry beneath this line, provide reported self-cleavage.
1. UACGUAGGUGGUUUUCCCCUGAUAGCGCUAAGGGGGCCUGGAAGUUUGGACUGGGCAGAGCUCAACGCAGCGUGGCAAAGUGGCUGUGGCUAGACUGCCUCUCUGGAUUCCUCGUCACUCAGCAGGGCAUCUCUGAGAGAAAUGCC
2. UACGUAGGUGGUUUUCCCCUGAUAGUGCUAAGGGGGCCUGGAAGUUUGGACUGGGCAGAGCUCAACACAGCGUGGCAAAGAGGCUGUGGCUAGACUGCCUCCCUGGAUUCCUCGUCACUCAGCAGGGCAUCUCUGAGAGAAAUGCC
3. UACGUAGGUGGUCUUCCCCUGAUAGUGCUAAGGGGGCCUGGAAGUUUGGACUGGGCAGAGCUCAACACAGCGUGGCAAAGUGGCUGUGGCUAGACUGCCUCUCUGGUUUCCUCGUCACUCAGCAGGGCAUCUCUGAGAGAAAUGCC
4. UACGUAGGUGGUUUUCCCCUGAUAGUGCUAAGGGGGCCUGGAAGUUUGGACUGGGCAGAGCUCAACACAGCGUGGCAAAGUGGCUGUGGGUAGACUGCCUCUCUGGAUUCCUCGUCACUCAGCAGGGCAUCUCUGAGAGAAAUGCC

// result
1.16
2.18
1.14
0.03

For each entry beneath this line, provide reported self-cleavage.
1. UACGUAGGUGGUUUUCCCCUGGUAGUGCUAAGGGGGCCUGGAAGUUUGGACUGGGCAGAGCUCAACACAGCGUGGCCAAGUGGCUGUGGCUAGACUGCCUCUCUGGAUUCCUCGUCACUCAGCAGGGCAUCUCUGAGAGAAAUGCC
2. UACGUAGGUGGUUUUCCCCUGAUAGUGCUAAGGGGGCCUGGAAGUUUGGACUAGGCAGAGCUCAACACAGCGUGGCAAAGUGGCCGUGGCUAGACUGCCUCUCUGGAUUCCUCGUCACUCAGCAGGGCAUCUCUGAGAGAAAUGCC
3. UACGUAGGUGGUUUUCCCCUGAUAGUGCUAAGGGGGCCUGGAAGUUUGGACUGGGCAGAGCUCAACACAGCGUGGUAAAGUGGCUGUGGCUAGACUGCCUCUCUGGAUUCCUCGUCACUCAGCAGGGCAUCUCUGAGAGACAUGCC
4. UACGUAGGUGGUGUUCCCCUGAUAGUGCUAAGGGGGCCUGGAAGUUUGGACUGGGCAGAGCUCAACACAGCGAGGCAAAGUGGCUGUGGCUAGACUGCCUCUCUGGAUUCCUCGUCACUCAGCAGGGCAUCUCUGAGAGAAAUGCC
5. UACGUAGGUGGUUUUCCCCUGAUAGUGCUAAGGGGGCCUGGAAGUUUGGACUGGGCAGAGCUCAACACAGCGUGGCAAAGUGGCUGCGGCUAGACUGCCUCUCUGGAUUCCUCGUCACACAGCAGGGCAUCUCUGAGAGAAAUGCC
6. UACGUAGGUGGUUUUCCCCUGAUAGUGCUAAGGGGGCCUGGAAGUUUGGACUGGGCAGAGCUCAACACAGCGUGGCGAAGUGGCUGUGGCUAGACUGCCUCUCUGGAUUCCUCGUCACUCAGCAGGGCAUCUUUGAGAGAAAUGCC

// result
1.09
0.2
1.29
2.54
0.19
1.99

For each entry beneath this line, provide reported self-cleavage.
1. UACGUAGGUGGUUUGCCCCUGAUAGUGCUAGGGGGGCCUGGAAGUUUGGACUGGGCAGAGCUCAACACAGCGUGGCAAAGUGGCUGUGGCUAGACUGCCUCUCUGGAUUCCUCGUCACUCAGCAGGGCAUCUCUGAGAGAAAUGCC
2. UACGUAGGUGGUUUUCCCCUGAUAGUGCUAAGGGGGCCUGGAAGUUUGGACUGGGCAGAGCUCAACACAACGUGGCAAAGUGGCUGUGGCUAGGCUGCCUCUCUGGAUUCCUCGUCACUCAGCAGGGCAUCUCUGAGAGAAAUGCC
3. UACGUAGGUGGUUCUCCCCUGAUAGUGCUAAGGGGGCCUGGAAGUUUGGACUGGGCAGAGCUCAACACAGCAUGGCAAAGUGGCUGUGGCUAGACUGCCUCUCUGGAUUCCUCGUCACUCAGCAGGGCAUCUCUGAGAGAAAUGCC
4. UACGUAGGUGGUUUUCCCCUGAUAGUGCUAAGGGGGCCUGGAAGUUUGGACUGGGCAGAGCUCAACACAGCGUGGCAAAGUGGCUGUGGCUAGACUGCCUCUCUGGUUUCCCCGUCACUCAGCAGGGCAUCUCUGAGAGAAAUGCC

// result
1: 0.79; 2: 0.07; 3: 1.23; 4: 1.84
